Values compiled from ChEMBL document CHEMBL1201862.

system: NCI-H460; assay: NCI tumour cell line growth inhibition, 48 h
The source made the active and inactive calls. Cut-off read from the data, not from the text of the source: active = GI50 up to about 1.1 µM and inactive = higher.
assay_endpoint: GI50

Study these solved cases before continuing.
Nc1ccc(-c2nc3ccccc3s2)cc1C#Cc1ccccc1: 17 µM (inactive)
O=[N+]([O-])C(/C=C(\Cl)[N+](=O)[O-])=C(Nc1ccccc1)Nc1ccccc1: 16.4 µM (inactive)
O=C1NC(Nc2ccccc2)=N/C1=C\c1c(Cl)cccc1Cl: 24.9 µM (inactive)

Below: the item to evaluate.
Considering C/C=C(/CBr)CCC(Br)C(C)(C)Cl.C/C=C(\CBr)CCC(Br)C(C)(C)Cl (configuration not stated) , its GI50 with NCI-H460 was recorded as > 10 µM (inactive)
